Where do the numbers come from? From patent US20240409663A1.

Molecular target: T1, human GPC3-his tag protein (human, UniProt P51654 25-559, limits assumed)
T1 construct: recombinant soluble antigen used as analyte in all Biacore runs; also called recombinant GPC3 protein; rhGPC3-His; not shown: His tag
Assay: SPR Biacore 8K, mAb captured, affinity ranking
Provide the reported Kd of each item.
Quick reminder: number only, in nM, skip the unit.

Supply recorded Kd for 52H5D3B8-6#-VH4+VL2 (antibody, V domains shown, humanized) VH: QVQLVQSGAEVKKPGASVKVSCKALGYTFTDYEMHWVKQAPGQGLEWIGAIHPGSGGTAYNQKFKGRATMTADKFTSTVYMELSSLRSEDTAVYYCTRYYSYAYWGQGTLVTVSS VL: DIVMTQTPLSLSVTPGQPASISCRSSQSLVHSNGNTYLQWYLQKPGQSPQLLIYKVSNRFSGVPDRFSGSGSGTDFTLKISRVEAEDVGVYFCFQSIHVPYTFGGGTKLEIK here. 1.05

Supply recorded Kd for 52H5D3B8-6#-VH3+VL1 (antibody, V domains shown, humanized) VH: QVQLVQSGAEVKKPGASVKVSCKALGYTFTDYEMHWVKQAPGQGLEWIGAIHPGSGGTAYNQKFKGRVTLTADTSTSTVYMELSSLRSEDTAVYYCTRYYSYAYWGQGTLVTVSS VL: DIVMTQTPLSLSVTPGQPASISCRSSQSLVHSNGNTYLQWYLQKPGQSPQLLIYKVSNRFSGVPDRFSGSGSGTDFTLKISRVEAEDVGVYYCFQSIHVPYTFGGGTKLEIK here. 0.838

Supply recorded Kd for 52H5D3B8-6#-VH2+VL4 (antibody, V domains shown, humanized) VH: QVQLVQSGAEVKKPGASVKVSCKASGYTFTDYEMHWVRQAPGQGLEWIGAIHPGSGGTAYNQKFKGRVTMTADTSTSTVYMELSSLRSEDTAVYYCTRYYSYAYWGQGTLVTVSS VL: DIVMTQTPLSLSVTPGQPASISCRSSQSLVHSNGNTYLQWYLQKPGQSPKLLIYKVSNRFSGVPDRFSGSGSGTDFTLKISRVEAEDVGVYFCFQSIHVPYTFGGGTKLEIK here. 0.994

Supply recorded Kd for 52H5D3B8-6#-VH2+VL1 (antibody, V domains shown, humanized) VH: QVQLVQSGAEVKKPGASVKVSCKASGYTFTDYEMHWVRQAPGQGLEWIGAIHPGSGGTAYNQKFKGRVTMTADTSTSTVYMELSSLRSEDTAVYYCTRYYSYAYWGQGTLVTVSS VL: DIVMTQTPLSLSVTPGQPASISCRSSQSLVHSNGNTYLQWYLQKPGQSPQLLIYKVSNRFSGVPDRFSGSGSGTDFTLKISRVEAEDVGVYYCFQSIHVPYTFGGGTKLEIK here. 1.15
